tested on: HS 578T breast; assay: NCI-60 one-dose screen, 48 h (100 = growth as untreated, 0 = no growth, -100 = all killed); settings: 10 µM
Compounds without any hit were thinned out: in the full panel of roughly 83,000, 20% have a hit. Active and inactive are the calls of the source. The calls were made as follows: active = growth percent below 10; inactive = the rest.
Quantity Kind: growth

CCN(CC)CCOc1ccc(/C(=C(\C)c2ccc(Cl)cc2)c2ccc(Cl)cc2)cc1 | 77.5% (inactive)
Clc1ccc(/C=C/c2cc(N3CCOCC3)c3cc(Cl)c(Cl)cc3n2)cc1 | 102% (inactive)
Cc1cc2c(-c3nc4ccccn4c3N)c(O)c(O)cc2c(O)c1-c1c(C)cc2c(-c3nc4ccccn4c3N)c(O)c(O)cc2c1O | 37.6% (inactive)
C=C1[C@@H](O)C[C@H]2C(C)(C)C[C@H](Cl)C[C@]2(C)[C@H]1C[C@H](O)[C@H]1CC(=O)NC1=O | -15.7% (active)
CC(=O)C1CC(C)CCC1C(C)C (centres undefined) | 106% (inactive)
O=S1(=O)OC(c2ccc(O)c(Cl)c2)(c2ccc(O)c(Cl)c2)c2ccccc21 | 97% (inactive)
O=C1CC(c2ccc3c(c2)OCO3)c2ncn(-c3ccc(Cl)cc3)c2N1 (centres undefined) | 47.5% (inactive)
CNC(=O)c1cnc(C)nc1-c1cc(C(C)(C)C)c(O)c(C(C)(C)C)c1 | 106% (inactive)
COc1ccc2c(c1OC)C(=O)O[C@@H]2[C@H]1c2c(c(C#CC#Cc3ccc(F)c(F)c3)c3c(c2OC)OCO3)CCN1C | 101% (inactive)

====

system: PC-3 prostate; test: NCI-60 one-dose screen, 48 h; conditions: 10 µM unless noted
Compounds without any hit were thinned out: in the full panel of roughly 83,000, 20% have a hit. Activity calls are given as the source filed them. The calls were made as follows: active = growth percent below 10; inactive = the rest.
Outcomes: true (active), false (inactive)

Cc1csc(-c2nnc(Nc3ccc(Oc4ncccc4-c4ccnc(N)n4)cc3)c3ccccc23)c1 | false
CN1CCN(c2nc(NCCNc3ccnc4cc(Cl)ccc34)c3ccccc3n2)CC1 | false
CC1CCC(n2cnc3c(Cl)ncnc32)O1 (centres undefined) | false
CC(=O)C1CC(C)CCC1C(C)C (centres undefined) | false
N#Cc1c(-c2ccc(Cl)cc2)csc1NC(=O)Nc1cccc(C(F)(F)F)c1 | false
N#Cc1c(NC(=O)c2cccs2)[n+]([O-])c2ccc(F)cc2[n+]1[O-] | false
O=C1CCC(=O)CC1 | false
COc1cc2c(Nc3ccc(Br)cc3F)ncnc2cc1OCC1CCN(C)CC1 | false
C[C@@H]1COCCN1c1cc(C2([S@](C)(=N)=O)CC2)nc(-c2ccnc3[nH]ccc23)n1 | false
CCCCCCCC(=O)SCC/C=C/[C@@H]1CC(=O)NCc2nc(co2)C2=N[C@@](C)(CS2)C(=O)N[C@@H](C(C)C)C(=O)O1 | true
CCOC(=O)c1sc(NC(=O)COc2ccc(/C=C3\Cc4ccc(Cl)cc4C3=O)cc2)nc1C | false
COC(=O)C1CCc2sc3ncnc(Nc4cn[nH]c4C(=O)Nc4ccc(CN5CCN(C)CC5)cc4)c3c21 (centres undefined) | true
COc1ccc(/C(C)=C(\c2ccc(Cl)cc2)c2ccc(OCCN3CCCCCC3)cc2)cc1 | false
Nc1nc(N)c2nc(-c3cccc(O)c3)c(-c3cccc(O)c3)nc2n1 | false
COc1cc(N2CCC(N(C)C)CC2)ccc1Nc1ncc(Cl)c(Nc2ccccc2P(C)(C)=O)n1 | false
Cc1nn(-c2nc3ccccc3[nH]2)c2c1C(c1ccc(OCc3ccc(F)cc3)cc1)CC(=O)N2 (centres undefined) | false
COc1cc2ncnc3c2cc1OCCCCCN(C)Cc1ccc(Br)cc1N3 | false
O=C(Cn1ccnc1)Nc1ccc(-c2nc3ccccc3s2)cc1 | false
CC(C)(C)OC(=O)N1CCC(O)[C@@H](O[Si](c2ccccc2)(c2ccccc2)C(C)(C)C)[C@H]1/C=C/c1ccccc1 (some centres undefined) | false
O=C1CC(c2ccc3c(c2)OCO3)c2ncn(-c3ccc(Cl)cc3)c2N1 (centres undefined) | false
Nc1c(Cl)cccc1[N+](=O)[O-] | false
CC(=O)c1cnc2ccc(-c3cc(Cl)c(O)c(Cl)c3)nc2c1NC1CCC(CN(C)C)CC1 (centres undefined) | true
C=CCCCOC1[C@H](OCc2ccccc2)C(OCc2ccccc2)C(OC)O[C@@H]1CNC(=O)c1cccc(I)c1 (some centres undefined) | false
CC(C)CC(=O)Nc1n[nH]c2c1CN(C(=O)C1CCN(C)CC1)C2(C)C | false
CCc1ccc(/C=C/c2ccc(O)c3ncccc23)[n+](C)c1 | false
Cc1cc(C2(c3ccc(O)c(C)c3)OS(=O)(=O)c3ccccc32)ccc1O | false
Nc1c(C(=O)c2ccccc2)sc2nc(-c3cccs3)ccc12 | false
COCCN1CCN(Cc2ccc(-c3n[nH]c4c3C(=O)c3c(NC(=O)NN5CCOCC5)cccc3-4)cc2)CC1 | true
CC1(O)CC(c2nc(-c3ccc4ccc(-c5ccccc5)nc4c3)c3c(N)nccn23)C1 (centres undefined) | false
CCc1nc(C(N)=O)c(Nc2ccc(N3CCC(N4CCN(C)CC4)CC3)c(OC)c2)nc1NC1CCOCC1 | false
CN(c1ncccc1CNc1nc(Nc2ccc3c(c2)CC(=O)N3)ncc1C(F)(F)F)S(C)(=O)=O | true
C#Cc1cccc(Nc2ncnc3cc(OCCOC)c(OCCOC)cc23)c1 | false
Oc1ccc(/C=N/Nc2nnc(N/N=C/c3ccc(O)cc3O)c3ccccc23)c(O)c1 | true
NC1(c2ccc(-c3nc4ccn5c(=O)[nH]nc5c4cc3-c3ccccc3)cc2)CCC1 | false
CC12O[C@H](C[C@@H](OC(=O)CCC(=O)O)[C@H]1O)n1c3ccccc3c3c4c(c5c6ccccc6n2c5c31)C(=O)NC4=O | false
C[C@@H](Oc1cc(C(=O)Nc2ccc(C(=O)N3CCN(C)CC3)cc2)nnc1N)c1c(Cl)ccc(F)c1Cl | false
CO[C@@H](C(=O)N1Cc2[nH]nc(NC(=O)c3ccc(N4CCN(C)CC4)cc3)c2C1)c1ccccc1 | false
COc1ccc2c(CCCc3ccc(Cl)cc3Cl)c3[n+](cc2c1OC)CCc1cc2c(cc1-3)OCO2 | true
CSC1=C(N)C(=O)c2[nH]cc(CO)c2C1=N | true

src = PubChem BioAssay (NCI)
